biological target: D(2) dopamine receptor (Homo sapiens, UniProt P14416); assay: Intrinsic activity at human dopamine D2S receptor expressed in HEK293 cells co-transfected with Galphai2 assessed as [35S]GTPgammaS binding after 30 mins by [35S]GTPgammaS incorporation assay relative to quinpirole; format: functional, cell-based; settings: in the assay text read “after 75 mins” for “after 30 mins”
Sequence (P14416 whole entry): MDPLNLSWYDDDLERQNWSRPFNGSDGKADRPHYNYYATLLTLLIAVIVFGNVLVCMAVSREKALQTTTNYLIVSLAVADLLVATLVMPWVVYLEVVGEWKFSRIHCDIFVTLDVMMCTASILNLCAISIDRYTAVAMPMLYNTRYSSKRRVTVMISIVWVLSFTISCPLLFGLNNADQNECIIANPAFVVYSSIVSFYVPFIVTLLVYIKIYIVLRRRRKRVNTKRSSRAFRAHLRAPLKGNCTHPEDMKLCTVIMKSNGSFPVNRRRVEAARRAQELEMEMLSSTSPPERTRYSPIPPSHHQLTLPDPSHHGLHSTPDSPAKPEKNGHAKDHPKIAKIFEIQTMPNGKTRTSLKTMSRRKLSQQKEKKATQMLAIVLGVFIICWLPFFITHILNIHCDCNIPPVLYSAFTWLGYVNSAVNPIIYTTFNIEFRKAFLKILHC
property: Emax (%)

{"molecular-string": "C#CC1=CC[C@@H](N(CCC)CCCCNC(=O)c2ccc(OCCCc3cn(CCCC)nn3)c(OC)c2)CO1", "target-or-system": "D(2) dopamine receptor (Homo sapiens, UniProt P14416)", "unit-tag": "%", "Emax": 94}
{"molecular-string": "C#CC1=CC[C@H](N(CCC)CCCCNC(=O)c2ccc(OCCCc3cn(CCCC)nn3)c(OC)c2)CO1", "target-or-system": "D(2) dopamine receptor (Homo sapiens, UniProt P14416)", "unit-tag": "%", "Emax": 89}
{"molecular-string": "CCCCn1cc(CCCOc2ccc(C(=O)NCCCCN(CCC)[C@H]3CCc4c(O)cccc4C3)cc2OC)nn1", "target-or-system": "D(2) dopamine receptor (Homo sapiens, UniProt P14416)", "unit-tag": "%", "Emax": 97}
{"molecular-string": "C#CC1=CC[C@@H](N(CCC)CCCCNC(=O)c2ccc(-c3ccccc3)cc2)CC1", "target-or-system": "D(2) dopamine receptor (Homo sapiens, UniProt P14416)", "unit-tag": "%", "Emax": 100}
{"molecular-string": "CCCCn1cc(CCCOc2ccc(C(=O)NCCCCN(CCC)CCc3ccc(O)c4[nH]c(=O)ccc34)cc2OC)nn1", "target-or-system": "D(2) dopamine receptor (Homo sapiens, UniProt P14416)", "unit-tag": "%", "Emax": 85}
